System: Staphylococcus aureus
Experiment: Antimicrobial activity against Staphylococcus aureus ATCC 6538p assessed as inhibition of bacterial growth measured for 24 hrs by standard broth microdilution method
Assay type: functional
Positions of bridges follow the written chain, without caps; N, C: chain ends. Non-standard residues stand in square brackets, D forms with d. Residues, ends and D or L forms follow the SMILES beside them. S5 = C=CCCC[C@](C)(N)C(=O)O; Nle = CCCC[C@H](N)C(=O)O; Dab = NCC[C@H](N)C(=O)O
Property measured: MIC (µg/mL)

{"Compound": "CCCC[C@@H]1NC(=O)[C@H](CCN)NC(=O)[C@H](Cc2c[nH]c3ccccc23)NC(=O)[C@@](C)(NC(=O)[C@@H](N)CCN)CCC/C=C/CCC[C@@](C)(C(=O)N[C@@H](CCN)C(N)=O)NC1=O (H-[Dab][S5]W[Dab][Nle][S5][Dab]-NH2; staple (E) 2-6)", "Test target": "Staphylococcus aureus", "Numeric readout": 25}
{"Compound": "CCCC[C@@H]1NC(=O)[C@H](CCCCN)NC(=O)[C@H](Cc2c[nH]c3ccccc23)NC(=O)[C@@](C)(NC(=O)[C@@H](N)CCCCN)CCC/C=C/CCC[C@@](C)(C(=O)N[C@@H](CCCCN)C(N)=O)NC1=O (H-K[S5]WK[Nle][S5]K-NH2; staple (E) 2-6)", "Test target": "Staphylococcus aureus", "Numeric readout": 12.5}

* * *

Assay: Hemolytic activity in human Red blood cells assessed as hemolysis rate at 24 uM incubated for 30 mins by absorbance based analysis relative to control
Type: toxicity, cell-based, Erythrocyte
Details: read-out: Activity
Positions of bridges follow the written chain, without caps; N, C: chain ends. Non-standard residues stand in square brackets, D forms with d. Residues, ends and D or L forms follow the SMILES beside them. S5 = C=CCCC[C@](C)(N)C(=O)O; Nle = CCCC[C@H](N)C(=O)O; Orn = NCCC[C@H](N)C(=O)O; Dab = NCC[C@H](N)C(=O)O; Dap = NC[C@H](N)C(=O)O
Property measured: hemolysis at 0.5 h, 24 µM (%)

{"Molecule": "CCCC[C@@H]1NC(=O)[C@H](CCCCN)NC(=O)[C@H](Cc2c[nH]c3ccccc23)NC(=O)[C@@](C)(NC(=O)[C@@H](N)CCCCN)CCC/C=C/CCC[C@@](C)(C(=O)N[C@@H](CCCCN)C(N)=O)NC1=O (H-K[S5]WK[Nle][S5]K-NH2; staple (E) 2-6)", "Property measured": "hemolysis at 0.5 h, 24 µM", "Units": "%", "Comparison sign": "=", "Numeric readout": 0.5}
{"Molecule": "C[C@@]1(C(=O)N[C@@H](CCCCN)C(N)=O)CCC/C=C/CCC[C@](C)(NC(=O)[C@@H](N)CCCCN)C(=O)N[C@@H](Cc2c[nH]c3ccccc23)C(=O)N[C@@H](CCCCN)C(=O)N[C@@H](CCC(=O)O)C(=O)N1 (H-K[S5]WKE[S5]K-NH2; staple (E) 2-6)", "Property measured": "hemolysis at 0.5 h, 24 µM", "Units": "%", "Comparison sign": "<", "Numeric readout": 0.1}
{"Molecule": "CCCC[C@@H]1NC(=O)[C@H](CN)NC(=O)[C@H](Cc2c[nH]c3ccccc23)NC(=O)[C@@](C)(NC(=O)[C@@H](N)CN)CCC/C=C/CCC[C@@](C)(C(=O)N[C@@H](CN)C(N)=O)NC1=O (H-[Dap][S5]W[Dap][Nle][S5][Dap]-NH2; staple (E) 2-6)", "Property measured": "hemolysis at 0.5 h, 24 µM", "Units": "%", "Comparison sign": "=", "Numeric readout": 0.2}
{"Molecule": "CCCC[C@@H]1NC(=O)[C@H](CCCN)NC(=O)[C@H](Cc2c[nH]c3ccccc23)NC(=O)[C@@](C)(NC(=O)[C@@H](N)CCCN)CCC/C=C/CCC[C@@](C)(C(=O)N[C@@H](CCCN)C(N)=O)NC1=O (H-[Orn][S5]W[Orn][Nle][S5][Orn]-NH2; staple (E) 2-6)", "Property measured": "hemolysis at 0.5 h, 24 µM", "Units": "%", "Comparison sign": "=", "Numeric readout": 0.4}
{"Molecule": "CCCC[C@@H]1NC(=O)[C@H](CCN)NC(=O)[C@H](Cc2c[nH]c3ccccc23)NC(=O)[C@@](C)(NC(=O)[C@@H](N)CCN)CCC/C=C/CCC[C@@](C)(C(=O)N[C@@H](CCN)C(N)=O)NC1=O (H-[Dab][S5]W[Dab][Nle][S5][Dab]-NH2; staple (E) 2-6)", "Property measured": "hemolysis at 0.5 h, 24 µM", "Units": "%", "Comparison sign": "=", "Numeric readout": 0.1}

* * *

Tested on: Salmonella typhimurium
Assay: Antimicrobial activity against Salmonella enterica subsp. enterica serovar Typhimurium ATCC 14028 assessed as inhibition of bacterial growth measured for 24 hrs by standard broth microdilution method
Format: functional
Positions of bridges follow the written chain, without caps; N, C: chain ends. Non-standard residues stand in square brackets, D forms with d. Residues, ends and D or L forms follow the SMILES beside them. S5 = C=CCCC[C@](C)(N)C(=O)O; Nle = CCCC[C@H](N)C(=O)O; Dab = NCC[C@H](N)C(=O)O
Entries and their measured MIC follow.
Property measured: MIC (µg/mL)

{"Compound": "CCCC[C@@H]1NC(=O)[C@H](CCN)NC(=O)[C@H](Cc2c[nH]c3ccccc23)NC(=O)[C@@](C)(NC(=O)[C@@H](N)CCN)CCC/C=C/CCC[C@@](C)(C(=O)N[C@@H](CCN)C(N)=O)NC1=O (H-[Dab][S5]W[Dab][Nle][S5][Dab]-NH2; staple (E) 2-6)", "Comparison sign": "=", "Numeric readout": 50}
{"Compound": "C[C@@]1(C(=O)N[C@@H](CCCCN)C(N)=O)CCC/C=C/CCC[C@](C)(NC(=O)[C@@H](N)CCCCN)C(=O)N[C@@H](Cc2c[nH]c3ccccc23)C(=O)N[C@@H](CCCCN)C(=O)N[C@@H](CCC(=O)O)C(=O)N1 (H-K[S5]WKE[S5]K-NH2; staple (E) 2-6)", "Comparison sign": ">", "Numeric readout": 100}

* * *

Tested on: Salmonella typhimurium
Assay: Antimicrobial activity against Salmonella enterica subsp. enterica serovar Typhimurium ATCC 14028 assessed as inhibition of bacterial growth measured for 24 hrs by standard broth microdilution method
Format: functional
Positions of bridges follow the written chain, without caps; N, C: chain ends. Non-standard residues stand in square brackets, D forms with d. Residues, ends and D or L forms follow the SMILES beside them. S5 = C=CCCC[C@](C)(N)C(=O)O; Nle = CCCC[C@H](N)C(=O)O; Orn = NCCC[C@H](N)C(=O)O; Dap = NC[C@H](N)C(=O)O
Property measured: MIC (µg/mL)

{"Compound": "CCCC[C@@H]1NC(=O)[C@H](CCCCN)NC(=O)[C@H](Cc2c[nH]c3ccccc23)NC(=O)[C@@](C)(NC(=O)[C@@H](N)CCCCN)CCC/C=C/CCC[C@@](C)(C(=O)N[C@@H](CCCCN)C(N)=O)NC1=O (H-K[S5]WK[Nle][S5]K-NH2; staple (E) 2-6)", "Property measured": "MIC", "Numeric readout": 50}
{"Compound": "CCCC[C@@H]1NC(=O)[C@H](CN)NC(=O)[C@H](Cc2c[nH]c3ccccc23)NC(=O)[C@@](C)(NC(=O)[C@@H](N)CN)CCC/C=C/CCC[C@@](C)(C(=O)N[C@@H](CN)C(N)=O)NC1=O (H-[Dap][S5]W[Dap][Nle][S5][Dap]-NH2; staple (E) 2-6)", "Property measured": "MIC", "Numeric readout": 50}
{"Compound": "CCCC[C@@H]1NC(=O)[C@H](CCCN)NC(=O)[C@H](Cc2c[nH]c3ccccc23)NC(=O)[C@@](C)(NC(=O)[C@@H](N)CCCN)CCC/C=C/CCC[C@@](C)(C(=O)N[C@@H](CCCN)C(N)=O)NC1=O (H-[Orn][S5]W[Orn][Nle][S5][Orn]-NH2; staple (E) 2-6)", "Property measured": "MIC", "Numeric readout": 25}

* * *

System: Staphylococcus aureus
Test: Antimicrobial activity against Staphylococcus aureus ATCC 6538p assessed as inhibition of bacterial growth measured for 24 hrs by standard broth microdilution method
Type: functional
Positions of bridges follow the written chain, without caps; N, C: chain ends. Non-standard residues stand in square brackets, D forms with d. Residues, ends and D or L forms follow the SMILES beside them. S5 = C=CCCC[C@](C)(N)C(=O)O; Nle = CCCC[C@H](N)C(=O)O; Orn = NCCC[C@H](N)C(=O)O; Dap = NC[C@H](N)C(=O)O
Readings of MIC for the listed compounds
Property measured: MIC (µg/mL)

{"Compound": "C[C@@]1(C(=O)N[C@@H](CCCCN)C(N)=O)CCC/C=C/CCC[C@](C)(NC(=O)[C@@H](N)CCCCN)C(=O)N[C@@H](Cc2c[nH]c3ccccc23)C(=O)N[C@@H](CCCCN)C(=O)N[C@@H](CCC(=O)O)C(=O)N1 (H-K[S5]WKE[S5]K-NH2; staple (E) 2-6)", "Comparison sign": ">", "Numeric readout": 100}
{"Compound": "CCCC[C@@H]1NC(=O)[C@H](CCCN)NC(=O)[C@H](Cc2c[nH]c3ccccc23)NC(=O)[C@@](C)(NC(=O)[C@@H](N)CCCN)CCC/C=C/CCC[C@@](C)(C(=O)N[C@@H](CCCN)C(N)=O)NC1=O (H-[Orn][S5]W[Orn][Nle][S5][Orn]-NH2; staple (E) 2-6)", "Comparison sign": "=", "Numeric readout": 12.5}
{"Compound": "CCCC[C@@H]1NC(=O)[C@H](CN)NC(=O)[C@H](Cc2c[nH]c3ccccc23)NC(=O)[C@@](C)(NC(=O)[C@@H](N)CN)CCC/C=C/CCC[C@@](C)(C(=O)N[C@@H](CN)C(N)=O)NC1=O (H-[Dap][S5]W[Dap][Nle][S5][Dap]-NH2; staple (E) 2-6)", "Comparison sign": "=", "Numeric readout": 12.5}
